Let's look at some binders and their measured IC50, Human IL-21R-TF1 Neutralization Assay.
- study system: human IL-21R expressed on cells (human, UniProt Q9HBE5 20-538)
- Sequence (Q9HBE5 20-538 limits assumed): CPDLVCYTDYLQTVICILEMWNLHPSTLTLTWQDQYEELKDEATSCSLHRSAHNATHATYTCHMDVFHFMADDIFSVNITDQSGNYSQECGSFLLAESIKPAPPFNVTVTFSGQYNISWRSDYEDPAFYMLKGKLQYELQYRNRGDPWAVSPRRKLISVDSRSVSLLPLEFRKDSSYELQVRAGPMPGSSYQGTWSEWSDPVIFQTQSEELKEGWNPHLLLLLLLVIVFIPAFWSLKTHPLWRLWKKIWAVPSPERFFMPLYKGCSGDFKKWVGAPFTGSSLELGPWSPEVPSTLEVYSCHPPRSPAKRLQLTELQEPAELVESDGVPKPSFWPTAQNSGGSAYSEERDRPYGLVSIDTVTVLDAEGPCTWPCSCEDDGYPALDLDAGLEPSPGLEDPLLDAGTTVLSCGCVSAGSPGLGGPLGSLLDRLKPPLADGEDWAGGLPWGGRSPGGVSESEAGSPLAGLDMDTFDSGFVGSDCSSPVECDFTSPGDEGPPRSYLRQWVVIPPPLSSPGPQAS
- protocol details: cell-based or functional assay
Give the value in nM but do not write nM after it.

scFv L18 (scFv) scFv: QVQLQESGPGLVKTSETLSLTCAVSGYSISSGYYWGWIRQPPGKGLEWIGSISHTGNTYYNPPLKSRVTISVDTSKNQFSLKLSSVTAADTAVYYCARGGGISRPEYWGKGTLVTVSSGGGGSGGGGSGGGGSALSSELTQDPPVSVALGQTVTLTCQGDSLRTYYASWYQQKSGQAPILLLYGKHKRPSGIPDRFSGSTSGDTASLTITGAQAEDEADYYCVTRSVKGNPHVLFGGGTQLTVL :: 54.4

Now look at this one.
query: Please give the documented IC50, Human IL-21R-TF1 Neutralization Assay of scFv L19 (scFv) scFv: QVQLQESGPGLVKTSETLSLTCAVSGYSISSGYYWGWIRQPPGKGLEWIGSISHTGNTYYNPPLKSRVTISVDTSKNQFSLKLSSVTAADTAVYYCARGGGISRPEYWGKGTLVTVSSGGGGSGGGGSGGGGSALSSELTQDPPVSVALGQTVTLTCQGDSLRTYYASWYQQKSGQAPILLLYGKHKRPSGIPDRFSGSTSGDTASLTITGAQAEDEADYYCVARAVRGNPHVLFGGGTQLTVL
result: 35.3
